Listing: pKd of selected binders
Target: T1, human IFNAR-1 protein (form not stated) (human, UniProt P17181 28-436, limits assumed)
T1 construct: bispecific ELISA
T1 sequence (looked up): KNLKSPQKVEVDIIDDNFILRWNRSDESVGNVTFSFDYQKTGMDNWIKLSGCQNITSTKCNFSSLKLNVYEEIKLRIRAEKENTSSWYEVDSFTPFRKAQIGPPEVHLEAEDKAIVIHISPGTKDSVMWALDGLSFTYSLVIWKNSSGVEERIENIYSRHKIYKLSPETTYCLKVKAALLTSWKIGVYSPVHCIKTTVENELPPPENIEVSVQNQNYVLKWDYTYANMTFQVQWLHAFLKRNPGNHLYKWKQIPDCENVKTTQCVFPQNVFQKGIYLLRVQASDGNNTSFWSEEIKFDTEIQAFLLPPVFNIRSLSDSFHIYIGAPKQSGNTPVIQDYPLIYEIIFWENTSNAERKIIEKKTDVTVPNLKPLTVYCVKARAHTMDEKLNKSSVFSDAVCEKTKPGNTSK
Assay: affinity measurement of purified IgG at different concentrations (method not named)
Kindly note that pKd refers to -log10 of the concentration in mol/L and answer with the value alone.

Consider the reported pKd for these binders:
binder	observable	experimental_result
8G11-H2L2 (antibody, V domains shown, Humanized IgG expressed in HEK293; also called VH2 + VL2 (8G11)) VH: QVQLVQSGAEVVKPGASVKVSCKGSGFNIKDYYMHWVRQAPGQGLEWIGRIDPEDAETKYAPKFQGRVTMTADTSTSTVYMELSSLRSEDTAVYYCARGGNFYVMDYWGQGTLVTVSS VL: DIQLTQSPSFLSTSVGDRVTITCKASQNVGTNVVWYQQKPGKSPKVLIYSASYRVSGVPSRFSGSGSGTEFTLIISSLQPEDFATYYCQQKNNYPYTFGQGTKLEIK	pKd	9.38
8G11-H1L1 (antibody, V domains shown, Humanized IgG expressed in HEK293; also called VH1 + VL1 (8G11)) VH: QVQLVQSGAEVKKPGASVKVSCKASGFNIKDYYMHWVRQAPGQGLEWMGRIDPEDAETKYAPKFQGRVTMTRDTSTSTVYMELSSLRSEDTAVYYCARGGNFYVMDYWGQGTLVTVSS VL: DIQLTQSPSFLSASVGDRVTITCKASQNVGTNVVWYQQKPGKAPKLLIYSASYRVSGVPSRFSGSGSGTEFTLTISSLQPEDFATYYCQQKNNYPYTFGQGTKLEIK	pKd	8.87
8G11-H2L1 (antibody, V domains shown, Humanized IgG expressed in HEK293; also called VH2 + VL1 (8G11)) VH: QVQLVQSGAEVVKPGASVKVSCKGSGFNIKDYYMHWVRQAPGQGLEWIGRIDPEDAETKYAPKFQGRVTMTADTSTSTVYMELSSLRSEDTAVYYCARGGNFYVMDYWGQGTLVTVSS VL: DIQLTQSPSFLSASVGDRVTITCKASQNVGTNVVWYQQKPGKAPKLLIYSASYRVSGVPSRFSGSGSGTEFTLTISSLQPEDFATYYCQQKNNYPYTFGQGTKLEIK	pKd	9.39

The binder 8G11-H4L3 (antibody, V domains shown, Humanized IgG expressed in HEK293; also called VH4 + VL3 (8G11)) VH: QVQLVQSGAEVVKPGASVKLSCKGSGFNIKDYYMHWVKQAPGQGLEWIGRIDPEDAETKYAPKFQGRATITADTSTSTAYLELSSLRSEDTAVYYCARGGNFYVMDYWGQGTLVTVSS VL: DIQLTQSPSFLSTSVGDRVTITCKASQNVGTNVVWYQQKPGKSPKVLIYSASYRVSGVPSRFSGSGSGTEFTLIISSVQPEDFATYFCQQKNNYPYTFGQGTKLEIK showed pKd equal to 9.66
